# System: T1, cohesin-human CD40 ectodomain protein (P3398) (human)
# T1 construct: SPR analyte; also called soluble human CD40 ectodomain; liquid phase soluble human CD40 ectodomain; not shown: cohesin domain of P3398 and its junction to CD40
# T1 sequence (chain, as listed by the source limits assumed): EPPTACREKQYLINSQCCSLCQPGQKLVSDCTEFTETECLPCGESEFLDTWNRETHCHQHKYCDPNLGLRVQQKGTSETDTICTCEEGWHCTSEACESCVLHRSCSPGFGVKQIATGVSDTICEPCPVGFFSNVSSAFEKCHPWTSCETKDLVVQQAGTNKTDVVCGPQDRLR
# Test: SPR (SensiQ Pioneer), hIgG4 mAb captured on Protein A/G, cohesin-human CD40 ectodomain in solution
So I've got a bunch of binders here, and I need their kon values.

Binder | kon
anti-CD40 24A3 human IgG4 antibody (antibody, V domains shown, also called mAb4 [24A3]) VH: DVQLQESGPDLVKPSQSLSLTCTVTGYSITSDYSWHWIRQFPGNKLEWMGYIYYSGSTNYNPSLKSRISITRDTSKNQFFLQLNSVTTEDSATYFCARFYYGYSFFDYWGQGTTLTVSS VL: QIVLTQSPAFMSASPGEKVTMTCSASSSVSYMHWYQQKSGTSPKRWIYDTSKLASGVPARFSGSGSGTSYSLTISSMEAEDAATYYCQQWSSNPLTFGAGTK | 83000 M⁻¹ s⁻¹
anti-CD40 12E12 human IgG4 antibody (antibody, V domains shown, also called mAb6 [12E12]; anti-CD40 12E12 IgG4) VH: EVQLVESGGGLVQPGGSLKLSCATSGFTFSDYYMYWVRQAPGKGLEWVAYINSGGGSTYYPDTVKGRFTISRDNAKNTLYLQMNSLRAEDTAVYYCARRGLPFHAMDYWGQGTLVTVSS VL: DIQMTQSPSSLSASVGDRVTITCSASQGISNYLNWYQQKPGKAVKLLIYYTSILHSGVPSRFSGSGSGTDYTLTISSLQPEDFATYYCQQFNKLPPTFGGGTK | 150000 M⁻¹ s⁻¹
anti-CD40 11B6 human IgG4 antibody (antibody, V domains shown, also called mAb1 [11B6 VH/VkV2]; PAB3405) VH: EVQLVQSGAEVKKPGASVKISCKASGYSFTGYYMHWVKQAHGQGLEWIGRINPYNGATSYNQNFKDRATLTVDKSTSTAYMELSSLRSEDTAVYYCAREDYVYWGQGTTVTVSS VL: DVVMTQSPLSLPVTLGQPASISCRSSQSLVHSNGNTYLHWYQQRPGQSPRLLIYKVSNRFSGVPDRFSGSGSGTDFTLKISRVEAEDVGVYFCSQSTHVPWTFGGGTKLEIKR | 300000 M⁻¹ s⁻¹

Now consider the entry below.
The measured kon associated with anti-CD40 12B4 human IgG4 antibody (antibody, V domains shown, also called mAb3 [12B4]) VH: EVQLQQSGPELVKPGASVKMSCKASGYTFTDYVLHWVKQKPGQGLEWIGYINPYNDGTKYNEKFKGKATLTSDKSSSTAYMELSSLTSEDSAVYYCARGYPAYSGYAMDYWGQGTSVTVSS VL: DIQMTQTTSSLSASLGDRVTISCRASQDISNYLNWYQQKPDGTVKLLIYYTSRLHSGVPSRFSGSGSGTDYSLTISNLEQEDIATYFCHHGNTLPWTFGGGTK reads 250000 M⁻¹ s⁻¹
